Test system: rodent lifetime carcinogenesis bioassay, tumor incidence TD50
Experiment: carcinogenic potency in animals, long-term in vivo studies, CPDB compilation (AID 1745844)
Conditions: mouse; strain B6C3F1; males; by gavage; site: multiple organs; lesion: malignant lymphoma, histiocytic type + malignant lymphoma, mixed type; dosed 104 weeks; study length 105 weeks
ENDPOINT_LABEL: TD50 (mg/kg/day)
Value expressed in mg/kg/day; do not type the unit.

Lookup: What TD50 value was documented for this molecule, c1ccoc1 ?
Found: 11

* * *

Test system: rodent lifetime carcinogenesis bioassay, tumor incidence TD50
Test: carcinogenic potency in animals, long-term in vivo studies, CPDB compilation (AID 1745844)
Settings: rat; strain Sprague-Dawley; females; in feed; site: any site (literature study); lesion: several types; types named in the paper; dosed 66 weeks; study length 75 weeks
Calls of active or inactive are those of the source. How the calls were made is not given here.
ENDPOINT_LABEL: TD50

Lookup: What TD50 value was documented for this compound, Cc1ncc([N+](=O)[O-])n1CCO ?
Found: 61.1 mg/kg/day (inactive)

* * *

System: rodent lifetime carcinogenesis bioassay, tumor incidence TD50
Experiment: carcinogenic potency in animals, long-term in vivo studies, CPDB compilation (AID 1745844)
Settings: rat; strain Charles River CD (Sprague-Dawley); females; inhaled; site: Zymbal's gland; lesion: squamous-cell carcinoma, sebaceous; dosed 93 weeks; study length 103 weeks
ENDPOINT_LABEL: TD50

Lookup: What TD50 value was documented for this compound, C=CF ?
Found: 1470 mg/kg/day

* * *

Test system: rodent lifetime carcinogenesis bioassay, tumor incidence TD50
Experiment: carcinogenic potency in animals, long-term in vivo studies, CPDB compilation (AID 1745844)
Details: rat; strain Non-inbred; both sexes; in feed; site: any site (literature study); lesion: several types; types named in the paper; dosed 143 weeks; study length 143 weeks
ENDPOINT_LABEL: TD50

Lookup: What TD50 value was documented for this molecule, O=S(=O)(O)c1ccc2c(N=Nc3ccc(S(=O)(=O)O)c4ccccc34)c(O)c(S(=O)(=O)O)cc2c1 ?
Found: 3320 mg/kg/day

More entries:
Lookup: What TD50 value was documented for this molecule, Cc1cc(C)c(S(=O)(=O)O)cc1N=Nc1cc(S(=O)(=O)O)c2ccccc2c1O ?
Found: 12000 mg/kg/day

* * *

System: rodent lifetime carcinogenesis bioassay, tumor incidence TD50
Assay: carcinogenic potency in animals, long-term in vivo studies, CPDB compilation (AID 1745844)
Conditions: mouse; strain Swiss/ICR; females; inhaled; site: lung; lesion: adenoma; dosed 52 weeks; study length 52 weeks
Active and inactive are the calls of the source. No rule for the calls is given here.
ENDPOINT_LABEL: TD50

Lookup: What TD50 value was documented for this molecule, FC(F)OC(F)(F)C(F)Cl (stereo unspecified) ?
Found: 8930 mg/kg/day (inactive)

* * *

System: rodent lifetime carcinogenesis bioassay, tumor incidence TD50
Test: carcinogenic potency in animals, long-term in vivo studies, CPDB compilation (AID 1745844)
Conditions: rat; strain Wistar; females; in feed; site: adrenal medulla; lesion: pheochromocytoma; dosed 106 weeks; study length 106 weeks
ENDPOINT_LABEL: TD50 (mg/kg/day)
Value expressed in mg/kg/day; do not type the unit.

Lookup: What TD50 value was documented for this molecule, CCC[CH2][Sn]([CH2]CCC)([CH2]CCC)[O][Sn]([CH2]CCC)([CH2]CCC)[CH2]CCC ?
Found: 1.79

* * *

Test system: rodent lifetime carcinogenesis bioassay, tumor incidence TD50
Experiment: carcinogenic potency in animals, long-term in vivo studies, CPDB compilation (AID 1745844)
Settings: hamster; strain Syrian Golden; females; by gavage; site: pancreatic duct; lesion: several types; types named in the paper; dosed 50 weeks; study length 65 weeks
ENDPOINT_LABEL: TD50

Lookup: What TD50 value was documented for this compound, O=NC(=O)CCNCCO ?
Found: 2.31 mg/kg/day

* * *

Tested on: rodent lifetime carcinogenesis bioassay, tumor incidence TD50
Assay: carcinogenic potency in animals, long-term in vivo studies, CPDB compilation (AID 1745844)
Details: mouse; strain Charles River CD1; females; in drinking water; site: all sites; lesion: all vascular tumors; dosed 52 weeks; study length 52 weeks
ENDPOINT_LABEL: TD50

Lookup: What TD50 value was documented for this compound, CN(C)N ?
Found: 26 mg/kg/day

* * *

System: rodent lifetime carcinogenesis bioassay, tumor incidence TD50
Experiment: carcinogenic potency in animals, long-term in vivo studies, CPDB compilation (AID 1745844)
Details: rat; strain Buffalo; females; in feed; site: uterus; lesion: carcinosarcoma; dosed 47 weeks; study length 88 weeks
ENDPOINT_LABEL: TD50
Put down the number, then write its unit next to it.

Lookup: What TD50 value was documented for this compound, CC(=O)Nc1cccc2c1Cc1ccccc1-2 ?
Found: 54.8 mg/kg/day

* * *

Tested on: rodent lifetime carcinogenesis bioassay, tumor incidence TD50
Assay: carcinogenic potency in animals, long-term in vivo studies, CPDB compilation (AID 1745844)
Details: mouse; strain Swiss albino; males; by gavage; site: preputial gland; lesion: several types; types named in the paper; dosed 52 weeks; study length 134 weeks
ENDPOINT_LABEL: TD50

Lookup: What TD50 value was documented for this molecule, CCCC/C=N/N(C)C=O ?
Found: 16.2 mg/kg/day

* * *

Tested on: rodent lifetime carcinogenesis bioassay, tumor incidence TD50
Assay: carcinogenic potency in animals, long-term in vivo studies, CPDB compilation (AID 1745844)
Settings: rat; strain Fischer 344; females; inhaled; site: clitoral gland; lesion: adenoma + carcinoma; dosed 105 weeks; study length 105 weeks
ENDPOINT_LABEL: TD50
Put down the number, then write its unit next to it.

Lookup: What TD50 value was documented for this compound, [O]=[Mo](=[O])=[O] ?
Found: 5.04 mg/kg/day

* * *

System: rodent lifetime carcinogenesis bioassay, tumor incidence TD50
Experiment: carcinogenic potency in animals, long-term in vivo studies, CPDB compilation (AID 1745844)
Conditions: rat; strain Sprague-Dawley; females; inhaled; site: liver; lesion: neoplastic nodule; dosed 104 weeks; study length 159 weeks
ENDPOINT_LABEL: TD50

Lookup: What TD50 value was documented for this molecule, ClC=C(Cl)Cl ?
Found: 9680 mg/kg/day

* * *

Tested on: rodent lifetime carcinogenesis bioassay, tumor incidence TD50
Test: carcinogenic potency in animals, long-term in vivo studies, CPDB compilation (AID 1745844)
Details: rat; strain Sprague-Dawley; males; i.p.; site: all sites; lesion: lymphoma; dosed 52 weeks; study length 78 weeks
ENDPOINT_LABEL: TD50 (mg/kg/day)
Value expressed in mg/kg/day; do not type the unit.

Lookup: What TD50 value was documented for this compound, Nc1nc(=S)c2ncn([C@H]3C[C@H](O)[C@@H](CO)O3)c2[nH]1 ?
Found: 5.75

* * *

Test system: rodent lifetime carcinogenesis bioassay, tumor incidence TD50
Experiment: carcinogenic potency in animals, long-term in vivo studies, CPDB compilation (AID 1745844)
Details: rat; strain Fischer 344; females; in feed; site: uterus; lesion: endometrial stromal polyp; dosed 104 weeks; study length 104 weeks
Overview of reported TD50 across a group of compounds:
Value expressed in mg/kg/day; do not type the unit.

Lookup: What TD50 value was documented for this compound, ClC=CCCl ?
Found: 61.4

Lookup: What TD50 value was documented for this compound, Cc1cc(O)c(C(C)(C)C)cc1Sc1cc(C(C)(C)C)c(O)cc1C ?
Found: 286

* * *

Tested on: rodent lifetime carcinogenesis bioassay, tumor incidence TD50
Assay: carcinogenic potency in animals, long-term in vivo studies, CPDB compilation (AID 1745844)
Conditions: rat; strain Fischer 344; males; inhaled; site: any site (literature study); lesion: several types; types named in the paper; dosed 104 weeks; study length 104 weeks
Calls of active or inactive are those of the source. How the calls were made is not given here.
ENDPOINT_LABEL: TD50

Here's what some known entries look like.
Lookup: What TD50 value was documented for this compound, CCc1ccccc1 ?
Found: 53 mg/kg/day

Lookup: What TD50 value was documented for this compound, O=CCCCC=O ?
Found: 0.239 mg/kg/day (inactive)

More entries:
Lookup: What TD50 value was documented for this compound, c1ccc2ccccc2c1 ?
Found: 27.5 mg/kg/day

Lookup: What TD50 value was documented for this compound, C=CC(=C)Cl ?
Found: 6.12 mg/kg/day

Lookup: What TD50 value was documented for this compound, CC(O)COC(C)(C)C (stereo not given) ?
Found: 683 mg/kg/day

* * *

Tested on: rodent lifetime carcinogenesis bioassay, tumor incidence TD50
Experiment: carcinogenic potency in animals, long-term in vivo studies, CPDB compilation (AID 1745844)
Details: mouse; strain Swiss albino; males; by gavage; site: preputial gland; lesion: squamous-cell papilloma; dosed 53 weeks; study length 119 weeks
ENDPOINT_LABEL: TD50 (mg/kg/day)
Value expressed in mg/kg/day; do not type the unit.

Lookup: What TD50 value was documented for this compound, CC(C)C/C=N/N(C)C=O ?
Found: 34.2

* * *

Tested on: rodent lifetime carcinogenesis bioassay, tumor incidence TD50
Assay: carcinogenic potency in animals, long-term in vivo studies, CPDB compilation (AID 1745844)
Conditions: rat; strain Wistar; males; in feed; site: liver; lesion: hemangioendothelioma; dosed 96 weeks; study length 96 weeks
ENDPOINT_LABEL: TD50

Lookup: For the record CN(C)N=O , what value of TD50 is listed for rodent lifetime carcinogenesis bioassay, tumor incidence TD50?
Found: 1.95 mg/kg/day
